Target: T1, monomeric CD22 (Acro Biosystems) (UniProt P20273 20-687)
T1 construct: Bought protein; also called CD22 antigen; soluble CD22 protein
T1 sequence (looked up): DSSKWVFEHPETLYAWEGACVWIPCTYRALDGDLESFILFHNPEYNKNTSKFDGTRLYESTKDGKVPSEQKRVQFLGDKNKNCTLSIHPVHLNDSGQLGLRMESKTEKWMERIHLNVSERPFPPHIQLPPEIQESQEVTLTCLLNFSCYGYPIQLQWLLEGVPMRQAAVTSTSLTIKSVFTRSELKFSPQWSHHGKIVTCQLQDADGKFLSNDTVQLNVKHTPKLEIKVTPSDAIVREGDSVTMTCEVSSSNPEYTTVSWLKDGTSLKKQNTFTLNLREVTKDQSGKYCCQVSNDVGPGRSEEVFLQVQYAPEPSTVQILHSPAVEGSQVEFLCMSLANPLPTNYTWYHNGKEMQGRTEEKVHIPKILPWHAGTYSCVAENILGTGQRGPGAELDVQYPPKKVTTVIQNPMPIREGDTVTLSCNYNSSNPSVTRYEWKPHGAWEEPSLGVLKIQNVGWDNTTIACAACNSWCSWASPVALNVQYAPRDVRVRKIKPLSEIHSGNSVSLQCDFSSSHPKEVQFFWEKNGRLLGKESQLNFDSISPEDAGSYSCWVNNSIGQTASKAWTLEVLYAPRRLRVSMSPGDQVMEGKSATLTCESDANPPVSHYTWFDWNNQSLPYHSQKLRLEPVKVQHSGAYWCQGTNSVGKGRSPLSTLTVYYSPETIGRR
Assay: BLI (ForteBio Octet Red), VHH-Fc captured on anti-human IgG Fc sensor, monomeric CD22 at 250 nM
Reported pKd values for a set of binders
Interpret pKd as the negative base-10 log of the concentration measured in mol/L.

Item under review: PROT810 (D04-AM-D11) VHH-Fc fusion protein (Fc fusion, I took that entry to be D04-AM-D11 on the strength of the name; also called DO4-D11-CD22 VHH; not shown: human IgG1 Fc domain) QVQLVESGGGLVQAGGSLRLSCAASGSEFTGYPMGWFRQAPGKEREFVAGSVGIGGSTNYADSVKGRFTISRDNAKNTVYLQMNSLKPEDTAVYYCAADKDYYKPYSRYRTAIRYDTWGQGTQVTVSS . Reported pKd?
8.16

Thanks! And PROT739 (A01) VHH-Fc fusion protein (Fc fusion, VHH fused to the human IgG1 Fc domain; not shown: human IgG1 Fc domain) EVQLLESGGGLVQPGGSLRLSCAASGLTSYSYAMGWYRQAPGKEREFVSAISSGGSAYYADSVKGRFTISRDNSKNTLYLQMNSLRAEDTAVYYCAVGPYYGFRAVTEADYWGQGTQVTVSS ?
7.02

Thanks! And PROT740 (E04) VHH-Fc fusion protein (Fc fusion, VHH fused to the human IgG1 Fc domain; not shown: human IgG1 Fc domain) EVQLLESGGGLVQPGGSLRLSCAASGFTSSSYVMGWYRQAPGKEREFVSSISTGGDAYYADSVKGRFTISRDNSKNTLYLQMNSLRAEDTAVYYCAADVWYYHGGAYDYWGQGTQVTVSS ?
7.63

Thanks! And PROT265 (D04) VHH-Fc fusion protein (Fc fusion, also called CD22_D04; not shown: human IgG1 Fc domain) QVQLVESGGGLVQAGGSLRLSCAASGSEFTGYPMGWFRQAPGKEREFVAGSVGIGGSTNYADSVKGRFTISRDNAKNTVYLQMNSLKPEDTAVYYCAADKDYYKPYSRYRTVIRYETWGQGTQVTVSS ?
7.50
